Molecular target: T1, ErbB3 extracellular domain (recombinant, soluble) (UniProt P21860 20-643, limits assumed)
T1 construct: extracellular domain; also called ectodomain of erbB3
T1 sequence (P21860 20-643 limits assumed): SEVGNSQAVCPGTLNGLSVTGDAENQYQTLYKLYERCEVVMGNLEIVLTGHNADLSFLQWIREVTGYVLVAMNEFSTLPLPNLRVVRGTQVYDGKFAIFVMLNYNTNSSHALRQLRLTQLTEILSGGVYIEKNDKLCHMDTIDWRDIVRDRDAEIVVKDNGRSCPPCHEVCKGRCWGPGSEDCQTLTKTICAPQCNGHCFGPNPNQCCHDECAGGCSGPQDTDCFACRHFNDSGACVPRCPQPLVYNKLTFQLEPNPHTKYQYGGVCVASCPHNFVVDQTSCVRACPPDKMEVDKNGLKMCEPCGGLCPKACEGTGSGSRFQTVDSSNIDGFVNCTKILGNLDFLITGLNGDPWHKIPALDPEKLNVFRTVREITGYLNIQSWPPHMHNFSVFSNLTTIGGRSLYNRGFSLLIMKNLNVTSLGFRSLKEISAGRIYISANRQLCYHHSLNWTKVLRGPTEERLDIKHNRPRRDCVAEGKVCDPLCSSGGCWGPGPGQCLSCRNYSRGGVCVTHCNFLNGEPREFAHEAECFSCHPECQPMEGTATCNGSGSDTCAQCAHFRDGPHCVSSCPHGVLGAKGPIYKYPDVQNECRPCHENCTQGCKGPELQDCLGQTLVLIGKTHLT
Test: SPR (Biacore 3000), peptide injected over immobilized receptor extracellular domain
Bridge positions count the residues as written; N and C are the ends. Ends that are not written are not given here.
Please assign 0 whenever Kd is at or above 1000 nM, and 1 whenever it is below.

BINDER | CLASS_ASSIGNMENT
YCFIFKYADPDCY (disulfide 2-12 (inferred)) [B4-S22-AFD (derived from erbB4)] | 1
YCFPDEEGACY (disulfide 2-10 (inferred)) [B2-S22-AFA (derived from erbB2)] | 1
YCLVWKYADAGCY (disulfide 2-12 (inferred)) [B1-S22-ALG (derived from erbB1)] | 1
YCPIWKFPDEECY (disulfide 2-12 (inferred)) [B2-S22-APE (derived from erbB2)] | 0
YCPIYKYPDVQCY (disulfide 2-12 (inferred)) [B3-S22-APQ (derived from erbB3)] | 0
